measured.on: Scribble PDZ1 R762A (human, UniProt Q14160 700-816, R762A)
Sequence (Q14160 700-816 R762A): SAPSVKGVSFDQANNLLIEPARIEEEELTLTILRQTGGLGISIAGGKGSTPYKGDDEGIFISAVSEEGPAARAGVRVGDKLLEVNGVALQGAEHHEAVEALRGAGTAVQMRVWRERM
assay.details: ITC
measured.property: Kd (µM)
Expressed in µM, but write only the number.

Query: Entry under review: QEEWETVM [PTHR PBM peptide, 8-mer] . Reported Kd?
Response: 39.9

Hey, just so you know, these numbers are from paper PMC10266016.
